B1: PSD2 (parent)
chain: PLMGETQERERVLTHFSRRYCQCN

Variants of: B1
Experiment: protein stability index of a GFP-peptide fusion (GPS, HEK-293T) (PSI 1-6); higher = more stable;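 note: lentivirally expressed fusions sorted by FACS into six bins by GFP to DsRed ratio, PSI derived from sequencing read proportions per bin multiplied by bin number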
Conditions: c terminus: a fixed tail appended

[
  {
    "Sequence change": "G4N",
    "protein stability index": 2.92
  },
  {
    "Sequence change": "Q22K",
    "protein stability index": 3.02
  },
  {
    "Sequence change": "H15G",
    "protein stability index": 3.07
  },
  {
    "Sequence change": "N24A",
    "protein stability index": 3.04
  }
]

Each recorded value in this set is attributed to the supplement of paper PMC10567573.
